viability at 28.5 h, 10 µM listing for selected compounds.
# EXPERIMENT DESCRIPTION: in vitro
# SETTINGS: human, hela cells, % viability
Respond numerically; units are % and should not be typed.

## Task Look up viability at 28.5 h, 10 µM: Cc1[nH]c2ccccc2c1C(CC(=O)c1ccc(Br)cc1)C(=O)O (centres unmarked)
## Result 90.9

---

# EXPERIMENT DESCRIPTION: in vitro
# SETTINGS: human, hela cells, % viability
READOUT TYPE: viability at 28.5 h, 10 µM (%)
Respond numerically; units are % and should not be typed.

## Task Look up viability at 28.5 h, 10 µM: COC(=O)c1c(C(C)(C)C)c(O)c2ccoc2c1OC
## Result 94.2

## Task Look up viability at 28.5 h, 10 µM: Cc1nc2c(C(=O)NCC3OCCO3)cnn2c(C)c1Cc1ccc(Br)cc1
## Result 99.8

## Task Look up viability at 28.5 h, 10 µM: CC(=O)N1CC[C@H]2NC(=O)CNC(=O)C3(CCCC[C@H]2C1)CCN(C(=O)COc1ccccc1)CC3
## Result 100

## Task Look up viability at 28.5 h, 10 µM: CCNc1cc(-c2cccc(N(C)C)c2)ncn1
## Result 97.8

## Task Look up viability at 28.5 h, 10 µM: COc1cc(CNc2nccnc2-c2ccc(C(=O)N3CCOCC3)cc2)cc(OC)c1
## Result 99.2

## Task Look up viability at 28.5 h, 10 µM: Cc1ccccc1COc1cccc2c1CCCC2
## Result 98.2

---

# EXPERIMENT DESCRIPTION: in vitro
# SETTINGS: human, hela cells, % viability
READOUT TYPE: viability at 28.5 h, 10 µM (%)
Respond numerically; units are % and should not be typed.

Solved cases (2 shown):
# COMPOUND, READOUT UNIT, viability at 28.5 h, 10 µM
records = [
    ("COCCNCc1cccc(OCc2ccccc2)c1 [CBK269864C]", "%", 87.9),
    ("COCCCNC(=O)Cn1c(-c2ccc(F)cc2)cc2cccnc21 [CBK285385]", "%", 88.5),
]

## Task Look up viability at 28.5 h, 10 µM: Oc1ccc(Br)cc1/C=N/c1ccc(-c2cc(-c3ccc(/N=C/c4cc(Br)ccc4O)cc3)ncn2)cc1 [CBK261630]
## Result 115

## Task Look up viability at 28.5 h, 10 µM: CC(C)[C@@H](Cn1nc(C2CC2)ccc1=O)NC(=O)c1ccco1 [CBK282321]
## Result 88.3

## Task Look up viability at 28.5 h, 10 µM: Cc1ccc(S(=O)(=O)Nc2c(C(=O)N3CCN(C)CC3)sc3ncccc23)cc1[N+](=O)[O-] [CBK050025]
## Result 91.2

## Task Look up viability at 28.5 h, 10 µM: CCNC(=O)c1ccc(-n2cccn2)c(C#Cc2cccnc2)c1 [CBK283150]
## Result 105

## Task Look up viability at 28.5 h, 10 µM: O=C(NC1(c2ccccc2)CCCC1)c1ccc(=O)n(CC(=O)N2CCCCC2)c1 [CBK285631]
## Result 90.5

## Task Look up viability at 28.5 h, 10 µM: O=C(O)CCC(=O)N1c2ccccc2CC1c1ccccc1 (stereo not shown) [CBK286860]
## Result 91.1

## Task Look up viability at 28.5 h, 10 µM: CC(C)(O)CCN(Cc1ccc(-c2ccc(S(C)(=O)=O)cc2)nc1)C1CCN(C(=O)OC(C)(C)C)CC1 [CBK167517]
## Result 101

## Task Look up viability at 28.5 h, 10 µM: CC(C)c1ccc(-c2cncc(NCc3cccc(Cl)c3)n2)cc1 [CBK065347]
## Result 106

---

# EXPERIMENT DESCRIPTION: in vitro
# SETTINGS: human, hela cells, % viability
READOUT TYPE: viability at 28.5 h, 10 µM
Could you kindly put the unit after your number?

## Task Look up viability at 28.5 h, 10 µM: COC(=O)COc1ccc(Oc2nc(N(C)C)nc(N3CCOCC3)n2)nn1
## Result 104%

---

viability at 28.5 h, 10 µM listing for selected molecules.
# EXPERIMENT DESCRIPTION: in vitro
# SETTINGS: human, hela cells, % viability
Respond numerically; units are % and should not be typed.

# MOLECULE, TEST RESULT
records = [
    ("CCOc1ccc(-c2ccnc(N3C[C@@H](C)O[C@@H](C)C3)n2)cc1C(=O)O", 92.5),
    ("Cc1ccc2[nH]c(-c3cccc(NC(=O)c4ccc(-n5cnnc5)cc4)c3)nc2c1", 94.1),
    ("Cn1cnc([N+](=O)[O-])c1Oc1ccccc1OCc1ccccc1", 91.7),
]

## Task Look up viability at 28.5 h, 10 µM: O=C(O)[C@H]1CN(C(=O)c2cccs2)C[C@@H]1c1ccc(F)cc1
## Result 98.1

## Task Look up viability at 28.5 h, 10 µM: CCCc1cc(C(=O)NCCCN)cc(CCC)c1OCc1ccccc1 [CBK001736C]
## Result 114

## Task Look up viability at 28.5 h, 10 µM: Cc1ccc(C(=O)N2C3CCC2CC(O)(c2cccnc2F)C3)o1 (stereo not drawn)
## Result 104

---

viability at 28.5 h, 10 µM listing for selected compounds.
# EXPERIMENT DESCRIPTION: in vitro
# SETTINGS: human, hela cells, % viability
Respond numerically; units are % and should not be typed.

# COMPOUND, READOUT UNIT, viability at 28.5 h, 10 µM
measured = [
    ("CC(=O)c1ccc(C(=O)Nc2sc3c(c2C#N)CCN(C(C)=O)C3)cc1", "%", 84.8),
    ("O=C(Cc1csc(-c2ccc(F)cc2)n1)Nc1ccc(F)cc1", "%", 82.3),
    ("Cc1ccc([N+](=O)[O-])cc1S(=O)(=O)NCC(=O)O", "%", 94.7),
    ("O=C(COc1cccnc1)N1CCCC2(CCN(C(=O)Cc3c[nH]c4ccccc34)C2)C1 (stereo not shown)", "%", 105),
]

## Task Look up viability at 28.5 h, 10 µM: O=S(=O)(c1ccc(C2=CSC3=NCCN23)cc1)N1CCOCC1
## Result 101

## Task Look up viability at 28.5 h, 10 µM: CN1CCCc2cc(-c3cncn3CC(=O)NC(C)(C)C)ccc21
## Result 95

## Task Look up viability at 28.5 h, 10 µM: c1ccc(-c2nnc3sc(-c4ccccn4)nn23)cc1
## Result 96.2

## Task Look up viability at 28.5 h, 10 µM: CSc1ncc(Cl)c(C(=O)Nc2ccc(S(=O)(=O)N3CCOCC3)cc2)n1
## Result 106

## Task Look up viability at 28.5 h, 10 µM: COc1ccc(C(=O)Nc2ccc(N3CCOCC3)c(Cl)c2)cc1[N+](=O)[O-]
## Result 100

## Task Look up viability at 28.5 h, 10 µM: CS(=O)(=O)c1cccc(-c2cnc(NCC3CC3)c(C(=O)Nc3ccc4c(c3)OCO4)c2)c1
## Result 95.2

---

# EXPERIMENT DESCRIPTION: in vitro
# SETTINGS: human, hela cells, % viability
viability at 28.5 h, 10 µM listing for selected compounds.
Respond numerically; units are % and should not be typed.

Solved cases (3 shown):
# COMPOUND, READOUT TYPE, TEST RESULT
records = [
    ("COCCC(=O)NC(Cc1ccsc1)c1nc(C)cs1 (centres unmarked) [CBK282830]", "viability at 28.5 h, 10 µM", 85.1),
    ("CCNC(=O)Nc1ccc2c(-c3ccc4c(c3)CCO4)ccnc2n1 [CBK070673]", "viability at 28.5 h, 10 µM", 96.2),
    ("O=C(O)c1ccc(NC(=O)c2cn(-c3ccccc3)nc2-c2cccnc2)cc1 [CBK296122]", "viability at 28.5 h, 10 µM", 102),
]

## Task Look up viability at 28.5 h, 10 µM: O=C(Nc1ccc2ccccc2c1)c1ccccc1N(Cc1ccccc1)S(=O)(=O)c1ccccc1 [CBK263751]
## Result 91.5

## Task Look up viability at 28.5 h, 10 µM: Cc1ccc(S(=O)(=O)NCCC(=O)NO)cc1 [CBK023472]
## Result 110

## Task Look up viability at 28.5 h, 10 µM: CN(C)Cc1ccc(C(=O)N2CCc3[nH]c4ccccc4c3C2)cc1 [CBK281847]
## Result 82.9

## Task Look up viability at 28.5 h, 10 µM: Cn1nccc1C(=O)C1CCN(C(=O)c2cccs2)CC1 [CBK284424]
## Result 95.1

## Task Look up viability at 28.5 h, 10 µM: COc1ccc(Cc2nc(CCNC(C)=O)n(CC(F)(F)F)n2)cc1 [CBK307287]
## Result 77.8

## Task Look up viability at 28.5 h, 10 µM: Nc1nc(NCCOc2ccccc2F)cc(C2CCOC2)n1 (centres unmarked) [CBK306559]
## Result 78.2

## Task Look up viability at 28.5 h, 10 µM: O=C(CCN1C(=O)c2ccccc2C1=O)N1CCOCCOCCN(C(=O)CCN2C(=O)c3ccccc3C2=O)CCOCCOCC1 [CBK260964]
## Result 89.9

## Task Look up viability at 28.5 h, 10 µM: CS(=O)(=O)Nc1ccc2[nH]ccc2c1 [CBK062728]
## Result 91.2

## Task Look up viability at 28.5 h, 10 µM: CN1C(=O)c2ccccc2C(=O)[C@@]2(C)CN(Cc3ccccc3)C[C@@H]12 [CBK284692]
## Result 95.1

## Task Look up viability at 28.5 h, 10 µM: COCCNc1nc(-c2ccccc2CO)ccc1C(=O)NCCNC(C)=O [CBK076548]
## Result 101

## Task Look up viability at 28.5 h, 10 µM: COc1cc([C@@]23CC[C@@H](NC(=O)Nc4cccc(Cl)c4)C[C@@H]2N(C)CC3)cc(OC)c1OC [CBK039212]
## Result 93.7

## Task Look up viability at 28.5 h, 10 µM: CSCC(=O)N1C[C@@H]2C[C@H](C1)c1c(-c3cncnc3)ccc(=O)n1C2 [CBK289195]
## Result 79.4

## Task Look up viability at 28.5 h, 10 µM: Fc1ccc2c(c1)[C@@H](Oc1cncc(NC3CCCNC3)n1)CCO2 (some centres unmarked) [CBK172256G]
## Result 92.6

## Task Look up viability at 28.5 h, 10 µM: Cn1c2ccccc2c2nnc(SCCCC(=O)c3ccc(F)cc3)nc21 [CBK268830]
## Result 92.8
